# Tested on: KM12 colon
# Test: NCI tumour cell line growth inhibition, 48 h
Provide the reported TGI of each item.

Cc1cc(Br)ccc1N=NC1C(=O)ON=C1c1ccccc1 (stereo not given)    > 100 µM

Quick batch: TGI for everything below.
1. CN1CC[C@H](N(C)C(=O)N2CC(c3cc(F)ccc3F)=C[C@@]2(CO)c2ccccc2)[C@H](F)C1
2. COc1cc(/C=C2\C(=O)Nc3ccc(O)cc32)cc(OC)c1OC
3. CCn1nc(C#Cc2c(C)ccc3c(Nc4ccc(Cl)cc4)nccc23)c2c(N)ncnc21
4. O=C(O)CN1CCN2CCOCCN(CC1)CCN(CC(=O)O)CC2
5. C=CC(C)(C)[C@@]12CC3C(=O)N[C@@H](Cc4ccccc4)C(=O)N3[C@@H]1N(C(C)=O)c1ccccc12 (stereo not given in full)
6. Nc1nc(NCc2ccccc2)cc(NCc2ccccc2)n1
7. NCCCc1nonc1C(=O)O

output:
1: > 100 µM; 2: > 100 µM; 3: > 100 µM; 4: > 100 µM; 5: > 100 µM; 6: 27.9 µM; 7: > 100 µM

Quick batch: TGI for everything below.
1. COc1cccc(-c2cc(-c3ccc(Nc4nc(Nc5ccc(Cl)cc5)nc(Nc5ccc(Cl)cc5)n4)cc3)nc(N)c2C#N)c1
2. COc1cc(Br)c(C2OCCCO2)cc1OCc1ccccc1

output:
["11.1 µM", "> 100 µM"]
